Taken from the supplement of paper PMC13380429.

Readings of drug-induced phospholipidosis for the listed compounds
Tested on: A549-ACE2
Assay: drug-induced phospholipidosis relative to tamoxifen; higher = more phospholipidosis
Details: 6.66667 µM; 72 h
State just the number; it will be interpreted in %.

compound="OC(CCN1CCCCC1)(c1ccccc1)C1CC2C=CC1C2 (centres undefined) [biperiden]" measure_name="drug-induced phospholipidosis" reading=6.62
compound="C=C[C@@]1(C)CC(=O)[C@]2(O)[C@@]3(C)[C@@H](O)CCC(C)(C)[C@@H]3[C@H](OC(=O)CCN(C)C)[C@H](OC(C)=O)[C@@]2(C)O1 [colforsin-daproate]" measure_name="drug-induced phospholipidosis" reading=-1.51
compound="Cc1nc(Nc2ccc(F)cc2)nc(N2CCc3ccccc3C2C)c1C (centres undefined) [revaprazan]" measure_name="drug-induced phospholipidosis" reading=3.85

Now look at this entry.
drug-induced phospholipidosis reported for this compound `COc1ccc(NC(=O)c2ccc(-c3ccc(-c4noc(C)n4)cc3C)cc2)cc1N1CCN(C)CC1` : 80.8

---

Tested on: Caco-2
Test: cell viability relative to DMSO; higher = less toxic
Conditions: 72 h; 1 nM
Measure name: cell viability (%)
State just the number; it will be interpreted in %.

compound=CC(C)=CCC/C(C)=C/CC/C(C)=C/C=C/C(C)=C/C(=O)O result_unit=% reading=104
compound=O=C(CC12CC3CC(CC(C3)C1)C2)Nc1cccc2nc(NCCNCCO)ccc12 result_unit=% reading=91.2

Reading of cell viability for `COc1ccc(CNC(=O)c2sc3nc(C)cc(C)c3c2N)cc1` with Caco-2: 95.8

Reading of cell viability for `Cc1cnc(Nc2ccc(OCCN3CCCC3)cc2)nc1Nc1cccc(S(=O)(=O)NC(C)(C)C)c1` with Caco-2: 101

Reading of cell viability for `FC(F)(F)c1ccc(Nc2ncnc3cc(-c4ncccc4C(F)(F)F)ccc23)cc1` with Caco-2: 100

Reading of cell viability for `CN(C)C(=O)N[C@H]1CC[C@H](CCN2CCN(c3cccc(Cl)c3Cl)CC2)CC1` with Caco-2: 95.7

Reading of cell viability for O=C(O)/C=C\c1c[nH]cn1 [cis-Urocanic acid] with Caco-2: 93.8

Reading of cell viability for `COC1CCN(c2cccc(-c3cc(NC(C)=O)nc(-n4nc(C)cc4C)n3)n2)CC1` with Caco-2: 106

Reading of cell viability for `COc1cc(/C=C2\CCCN([C@@H](C)c3ccc(F)cc3)C2=O)ccc1-n1cnc(C)c1` with Caco-2: 106

Reading of cell viability for O=C1c2cc(Cl)ccc2OC2CCON12 (stereo not drawn) with Caco-2: 108

Reading of cell viability for `CCN(c1nc(N)c(C(=O)NC(=N)N)nc1Cl)C(C)C` with Caco-2: 90.8

---

System: HepG2
Assay: cell viability relative to DMSO; higher = less toxic
Settings: 72 h; 100 nM
Readings of cell viability for the listed compounds
State just the number; it will be interpreted in %.

compound=CCc1nn(CCCN2CCN(c3cccc(Cl)c3)CC2)c(=O)n1CCOc1ccccc1 assay_system=HepG2 measure_name="cell viability" result_unit=% reading=95.7
compound=O=C(O)/C=C/c1ccc(-c2ccc(O)c(C34CC5CC(CC(C5)C3)C4)c2)cc1 assay_system=HepG2 measure_name="cell viability" result_unit=% reading=95.7
compound=CNC(=O)c1c(I)c(NC(C)=O)c(I)c(C(=O)O)c1I assay_system=HepG2 measure_name="cell viability" result_unit=% reading=107
compound=CC(C)=CCC/C(C)=C/CC/C(C)=C/C=C/C(C)=C/C(=O)O assay_system=HepG2 measure_name="cell viability" result_unit=% reading=90.9
compound=COC(=O)N[C@H](C(=O)N1CCC[C@H]1C(=O)Nc1ccc([C@@H]2CC[C@@H](c3ccc(NC(=O)[C@@H]4CCCN4C(=O)[C@@H](NC(=O)OC)C(C)C)cc3)N2c2ccc(C(C)(C)C)cc2)cc1)C(C)C assay_system=HepG2 measure_name="cell viability" result_unit=% reading=92.1
compound=Cc1ccccc1CN1C(=O)C2=C(CCN(Cc3ccccc3)C2)N2CCN=C12 assay_system=HepG2 measure_name="cell viability" result_unit=% reading=104
compound="COC(=O)C1=C(C#N)NC(C)=C(C(=O)OC(C)C)C1c1cccc([N+](=O)[O-])c1 (centres undefined)" assay_system=HepG2 measure_name="cell viability" result_unit=% reading=109
compound=COc1ccc(CNC(=O)/C=C/c2ccc3[nH]cc(CCN(C)C)c3c2)cc1 assay_system=HepG2 measure_name="cell viability" result_unit=% reading=93.5

cell viability reported for this compound [Cl][Ti][Cl].c1cc[cH-]c1.c1cc[cH-]c1 [titanocene-dichloride] : 97.2

cell viability reported for this compound CN1C2CCCC1CC(NC(=O)c1nn(C)c3ccccc13)C2 (centres undefined) : 82.7

cell viability reported for this compound `C=C[C@@H]1C[C@]1(NC(=O)[C@@H]1C[C@@H]2CN1C(=O)[C@H](C(C)(C)C)NC(=O)O[C@@H]1C[C@H]1CCCCCc1nc3ccc(OC)cc3nc1O2)C(=O)NS(=O)(=O)C1CC1` : 99.6

cell viability reported for this compound `NCCCNCCSP(=O)(O)O` : 96.6

cell viability reported for this compound `O=C(CN1C(=O)C2(CCCC2)NC[C@H]1c1cc(F)cc(F)c1)Nc1ccc2c(c1)C[C@@]1(C2)C(=O)Nc2ncccc21` : 101

cell viability reported for this compound `CN(C)C(=O)Oc1ccc[n+](C)c1` : 101

cell viability reported for this compound `CN1CC[C@@H](c2c(O)cc(O)c3c(=O)cc(-c4ccccc4Cl)oc23)[C@@H]1CO` : 101

cell viability reported for this compound NS(=O)(=O)c1ccc2c(c1)C1C=CCC1C(c1ccc(Br)cc1)N2 (centres undefined) : 89.5

cell viability reported for this compound `CCCS(=O)(=O)Nc1ccc(F)c(C(=O)c2c[nH]c3ncc(-c4ccc(Cl)cc4)cc23)c1F` : 98.3

cell viability reported for this compound CCCCCCCCNC(C)C(O)c1ccc(SC(C)C)cc1 (centres undefined) : 98.5

cell viability reported for this compound `O=C(O)CCNc1cc(N2CCc3ccccc3CC2)nc(-c2cccnc2)n1` : 96.6
